Molecular target: PE-labeled human PD-L1-Ig binding to Jurkat cell line over-expressing human PD-1 (Jurkat-PD-1) (Homo sapiens)
Construct: expressed in transfected cells; host or cells: Jurkat
Sequence (Q15116 25-288): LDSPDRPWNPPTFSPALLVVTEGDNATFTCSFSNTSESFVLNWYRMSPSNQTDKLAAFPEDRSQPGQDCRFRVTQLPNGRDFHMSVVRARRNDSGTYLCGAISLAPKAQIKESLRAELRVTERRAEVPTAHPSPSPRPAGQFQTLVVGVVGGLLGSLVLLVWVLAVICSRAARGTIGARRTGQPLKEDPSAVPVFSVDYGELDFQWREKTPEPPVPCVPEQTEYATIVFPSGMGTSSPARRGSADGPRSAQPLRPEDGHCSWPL
Test: Jurkat-PD-1 Cell Binding High-Content Screening Assay (CBA): Method 1
Conditions: Jurkat-hPD-1 cells, PE-labeled PD-L1-Ig 20 nM final; read-out: Jurkat HPDL1 PD1 IC50 (uM) (Method 1)
Bridge positions count the residues as written; N and C are the ends. Square brackets hold non-standard residues; d marks the D form. Peptide text beside a SMILES is read from it. Bip = N[C@@H](Cc1ccc(-c2ccccc2)cc1)C(=O)O; Phe(3-OMe) = COc1cccc(C[C@H](N)C(=O)O)c1; NMeA = CN[C@@H](C)C(=O)O; Orn = NCCC[C@H](N)C(=O)O; Dab = NCC[C@H](N)C(=O)O; Aib = CC(C)(N)C(=O)O
Can you tell me IC50 for the items I'm about to list?
Give bare numbers, in µM.

Recorded IC50, per entry:
>  <molecule>
CC(C)C[C@@H]1NC(=O)[C@H](Cc2c[nH]c3ccccc23)NC(=O)[C@H](CC(=O)O)NC(=O)[C@H](Cc2ccc(O)cc2)NC(=O)[C@H](Cc2ccccc2)NC(=O)CSC[C@@H](C(=O)N[C@@H](C)C(N)=O)NC(=O)[C@H](CO)NC(=O)[C@H](C(C)C)NC(=O)[C@H](CC(C)C)NC(=O)[C@H](CCCNC(=N)N)NC(=O)[C@@H](C)NC(=O)[C@H](C)N(C)C(=O)[C@H](CCCNC(=N)N)NC(=O)[C@H](Cc2ccc(-c3ccccc3)cc2)NC1=O [Compound 1782] ({CH2CO}-FYDWL[Bip]R[NMeA][dA]RLVSCA-NH2; thioether N-14)

>  <IC50 [µM]>
0.08

$$$$
>  <molecule>
CC(C)C[C@@H]1NC(=O)[C@H](CCCCN)NC(=O)[C@@H](CC(C)C)NC(=O)[C@H](C)N(C)C(=O)[C@H](CCCNC(=N)N)NC(=O)[C@H](Cc2ccc(-c3ccccc3)cc2)NC(=O)[C@H](C(C)C)NC(=O)[C@H](Cc2c[nH]c3ccccc23)NC(=O)[C@H](CC(=O)O)NC(=O)[C@H](Cc2ccc(O)cc2)NC(=O)[C@H](Cc2ccccc2)NC(=O)CSC[C@@H](C(=O)N[C@@H](CO)C(N)=O)NC(=O)[C@H]([C@@H](C)O)NC(=O)[C@H](C(C)C)NC1=O [Compound 1184] ({CH2CO}-FYDWV[Bip]R[NMeA][dL]KLVTCS-NH2; thioether N-14)

>  <IC50 [µM]>
0.13

$$$$
>  <molecule>
CC(C)C[C@@H]1NC(=O)[C@H](CCN)NC(=O)[C@@H](CC(C)C)NC(=O)[C@H](C)N(C)C(=O)[C@H](CCC(=O)O)NC(=O)[C@H](Cc2ccc(-c3ccccc3)cc2)NC(=O)[C@H](C(C)C)NC(=O)[C@H](Cc2c[nH]c3ccccc23)NC(=O)[C@H](CC(=O)O)NC(=O)[C@H](Cc2ccc(O)cc2)NC(=O)[C@H](CC(N)=O)NC(=O)CSC[C@@H](C(=O)N[C@@H](C)C(N)=O)NC(=O)[C@H]([C@@H](C)O)NC(=O)[C@H](C(C)C)NC1=O [Compound 1255] ({CH2CO}-NYDWV[Bip]E[NMeA][dL][Dab]LVTCA-NH2; thioether N-14)

>  <IC50 [µM]>
0.03

$$$$
>  <molecule>
COc1cccc(C[C@@H]2NC(=O)[C@H](CC(=O)O)NC(=O)[C@H](Cc3ccc(O)cc3)NC(=O)[C@H](Cc3ccccc3)NC(=O)CSC[C@@H](C(=O)NCC(N)=O)NC(=O)[C@H](CO)NC(=O)[C@H](C(C)C)NC(=O)[C@H](CC(C)C)NC(=O)[C@H](CC(N)=O)NC(=O)[C@@H](CC(C)C)NC(=O)[C@H](C)N(C)C(=O)[C@H](C(C)C)NC(=O)[C@H](Cc3ccc(-c4ccccc4)cc3)NC(=O)[C@H](CC(C)C)NC2=O)c1 [Compound 1516] ({CH2CO}-FYD[Phe(3-OMe)]L[Bip]V[NMeA][dL]NLVSCG-NH2; thioether N-14)

>  <IC50 [µM]>
0.02

$$$$
>  <molecule>
CC(C)C[C@@H]1NC(=O)[C@H](CCCN)NC(=O)[C@@H](CC(C)C)NC(=O)[C@H](C)N(C)C(=O)[C@H](CCCNC(=N)N)NC(=O)[C@H](Cc2ccc(-c3ccccc3)cc2)NC(=O)[C@H](C(C)C)NC(=O)[C@H](Cc2c[nH]c3ccccc23)NC(=O)[C@H](CC(=O)O)NC(=O)[C@H](Cc2ccc(O)cc2)NC(=O)[C@H](CC(N)=O)NC(=O)CSC[C@@H](C(=O)N[C@@H](C)C(N)=O)NC(=O)[C@H]([C@@H](C)O)NC(=O)[C@H](C(C)C)NC1=O [Compound 1128] ({CH2CO}-NYDWV[Bip]R[NMeA][dL][Orn]LVTCA-NH2; thioether N-14)

>  <IC50 [µM]>
0.08

$$$$

Value sought for every listed molecule: IC50.
1. CC(C)C[C@@H]1NC(=O)[C@H](CCN)NC(=O)[C@@H](CC(C)C)NC(=O)[C@H](C)N(C)C(=O)[C@H](Cc2ccccc2)NC(=O)[C@H](Cc2ccc(-c3ccccc3)cc2)NC(=O)[C@H](C(C)C)NC(=O)[C@H](Cc2c[nH]c3ccccc23)NC(=O)[C@H](CC(=O)O)NC(=O)[C@H](Cc2ccc(O)cc2)NC(=O)[C@H](CC(N)=O)NC(=O)CSC[C@@H](C(=O)N[C@@H](C)C(N)=O)NC(=O)[C@H]([C@@H](C)O)NC(=O)[C@H](C(C)C)NC1=O [Compound 1272] ({CH2CO}-NYDWV[Bip]F[NMeA][dL][Dab]LVTCA-NH2; thioether N-14)
2. CC(C)C[C@@H]1NC(=O)[C@H](CCCNC(=N)N)NC(=O)C(C)(C)NC(=O)[C@H](C)N(C)C(=O)[C@H](CCCNC(=N)N)NC(=O)[C@H](Cc2ccc(-c3ccccc3)cc2)NC(=O)[C@H](C(C)C)NC(=O)[C@H](Cc2c[nH]c3ccccc23)NC(=O)[C@H](CC(=O)O)NC(=O)[C@H](Cc2ccc(O)cc2)NC(=O)[C@H](Cc2ccccc2)NC(=O)CSC[C@@H](C(=O)NCC(N)=O)NC(=O)[C@H](CO)NC(=O)[C@H](C(C)C)NC1=O [Compound 1013] ({CH2CO}-FYDWV[Bip]R[NMeA][Aib]RLVSCG-NH2; thioether N-14)
3. CC(C)C[C@@H]1NC(=O)CSC[C@@H](C(=O)N[C@@H](C)C(N)=O)NC(=O)[C@H]([C@@H](C)O)NC(=O)[C@H](C(C)C)NC(=O)[C@H](CC(C)C)NC(=O)[C@H](CCCNC(=N)N)NC(=O)[C@@H](CC(C)C)NC(=O)[C@H](C)N(C)C(=O)[C@H](CCCNC(=N)N)NC(=O)[C@H](Cc2ccc(-c3ccccc3)cc2)NC(=O)[C@H](C(C)C)NC(=O)[C@H](Cc2c[nH]c3ccccc23)NC(=O)[C@H](CC(=O)O)NC(=O)[C@H](Cc2ccc(O)cc2)NC1=O [Compound 1050] ({CH2CO}-LYDWV[Bip]R[NMeA][dL]RLVTCA-NH2; thioether N-14)

[0.16, 0.16, 0.11]

Reference source for all entries: patent US20240409585A1
